Entry source: the RNAGym collection of RNA variant scans (doi:10.1126/science.aae0568)

B1: tRNA (parent)
chain: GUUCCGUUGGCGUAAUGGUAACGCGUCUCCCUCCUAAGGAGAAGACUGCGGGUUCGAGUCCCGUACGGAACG

- Variants of: B1
- procedure summary: yeast fitness relative to wild type (ratio to wild type); higher = fitter; tRNA-Arg(CCU), competitive growth, 37 C, YPD
Fewer inactive variants are shown than the library holds.
measurement label: yeast fitness
Returns: the value as a bare number; no unit string appended.

Field: example entries. Status: answers known.
primary sequence: GUUGUGUUGGCGUAAUGGUAACGCGUCUCCGUCCUAAGGAAACGACUGCGCGUUCGAGUCCCGUACGGAACG
yeast fitness: 0.606

primary sequence: GUUCCGUUGGCGUAAUGGUAAUGCGUCUCCCUCCUAAGGAGAAGACUACGGGUUUGAGUCCCGUACGGAACG
yeast fitness: 0.599

primary sequence: GUUCCGUUGGCGUAAUGGUAACGCGUCUUCCUCCUAAGGAGAAGACCGCGGGUUCGAGUCCCGUACGGAACG
yeast fitness: 0.923

primary sequence: GUUCUGUUGGCGUAAUGGUAACGCGUCUCCCUCCUAAGGAGAAGACUGAGGGUUCGAGUCCCGUAUGGAACG
yeast fitness: 0.551

primary sequence: GUUCCGUUAGCGUAAUGGUAACGCGUCUCCCUCCUAAGGAGUAGACUGCGGGUUCGAGUCCCGUACGGAACG
yeast fitness: 0.87

primary sequence: GUUCCAUUCGCGUAAUGGUACCGCGUCUCUCUCCUAAGGAGAAGUCUGCGGGUUAGAGUCCCGUACGGAACG
yeast fitness: 0.517

primary sequence: GUUCCGUUGGAGUAAUGGUAACGCGUCUCCCUCCUAAGGAGAAGCCUGCGGGCUCGAGUCCCGUACGGAACG
yeast fitness: 0.645

primary sequence: GUUGAGUUGGCGUAAUGGUAACGUGUCUCCCUCCUAAGGAGAAGACUGCGGGUUCGAGUCUCGUAUGGACCG
yeast fitness: 0.514

The reported value for "GUUCCGUUGGCGUGAUGGUAACGCGUCUGCUUCCUAAGGAGAAGACUGCGGGUUCGAGUCCCGUACGGAACG" in terms of yeast fitness is 0.6

So for "GUUCCGUUGGCGUAAUGGUAACGCCUCUCCCUCCUAAGAAGAAGACUGCGGGUUCGACUCCCGUACGGAACG" , the logged yeast fitness turned out to be 0.663

The recorded yeast fitness for entry "GUUCCGUUGGCGUAAUGGUGACGCGUCUCCCUCCCAAGGAGAAGACUGCGGGUUCGAGUCCCGUACGGAUCG" equals 0.629

// field: yeast fitness; key: "GUUCCGUUGGAGUAAUGGUAACGUGUCUCCUUCCUAAGGAGAAGACUGCGGGUUCGAGUCCCGUACGGAACG" ; value = 0.547

Query "GUUCCGUUGGCGUAUUGGUAACGCGUCUCCCUCCUAAGGAGCCGACUGCGGGUUCGAGUCCCGUACGGAACG" yields yeast fitness of 0.561

variant "GUUCAGUUGGCGUAGUGGUAACGCGUCUCCUUCCUAAGGAGAAGACUGCGGGUUCGAGUCCCGUACGGAACG" , yeast fitness observed: 0.657

Lab note: "GUUCCGUUGGCGUAAUGGUAACGCGUCUCCCUCCUACGGAGACGACUGCGGGUUCGAGUCCCGUACGGAUCG" gave yeast fitness of 0.622

So, "GUUCCGUUGGCGUAAUGGUAGCGCGUCUCCCUCCUAAGGAGAAGACUGCAGGUUCGAGUCCCGUACGGAACG" ? Its yeast fitness was 1.14
